Listing of recorded remaining target (mRNA or protein) (fraction of control) by entry.
conditionSet: ASO; also: test concentration or dose not given here
These antisense oligonucleotides have a phosphorothioate backbone; sugars and methylation of C are not fully specified.
reportedMetric: remaining target (mRNA or protein) (fraction of control)

[
  {
    "recordSequence": "TTTCTGCACGGAGAAGCA",
    "resultModifier": "=",
    "endpointValue": 0.26
  },
  {
    "recordSequence": "AAGGTTAAGATGCAGCAT",
    "resultModifier": "=",
    "endpointValue": 0.55
  },
  {
    "recordSequence": "TGTCTGGGTCCACCGTGC",
    "resultModifier": "=",
    "endpointValue": 0.45
  },
  {
    "recordSequence": "TGCTGTCACTCACGCACTCG",
    "resultModifier": "=",
    "endpointValue": 0.57
  },
  {
    "recordSequence": "CGGCTGAATCGAGCAGGT",
    "resultModifier": "=",
    "endpointValue": 0.93
  },
  {
    "recordSequence": "TTCTCCTCCAGGCACTGG",
    "resultModifier": "≥",
    "endpointValue": 1
  },
  {
    "recordSequence": "GGCGAAGCTGATGCGGAC",
    "resultModifier": "≥",
    "endpointValue": 1
  },
  {
    "recordSequence": "TCAGCATCCTGCTTAGGG",
    "resultModifier": "≥",
    "endpointValue": 1
  },
  {
    "recordSequence": "GGGAGTTGACGAAGATGG",
    "resultModifier": "=",
    "endpointValue": 0.96
  },
  {
    "recordSequence": "AATCTTTAATTTCAGCCC",
    "resultModifier": "≥",
    "endpointValue": 1
  },
  {
    "recordSequence": "GCTCCCATCCTCGTCGCC",
    "resultModifier": "≥",
    "endpointValue": 1
  }
]

// data source = the OligoGym collection
